Target: hMC5-R (Homo sapiens, UniProt P33032)
Construct: expressed in transfected cells; host or cells: HEK 293 cells (membranes)
Sequence (P33032 whole entry): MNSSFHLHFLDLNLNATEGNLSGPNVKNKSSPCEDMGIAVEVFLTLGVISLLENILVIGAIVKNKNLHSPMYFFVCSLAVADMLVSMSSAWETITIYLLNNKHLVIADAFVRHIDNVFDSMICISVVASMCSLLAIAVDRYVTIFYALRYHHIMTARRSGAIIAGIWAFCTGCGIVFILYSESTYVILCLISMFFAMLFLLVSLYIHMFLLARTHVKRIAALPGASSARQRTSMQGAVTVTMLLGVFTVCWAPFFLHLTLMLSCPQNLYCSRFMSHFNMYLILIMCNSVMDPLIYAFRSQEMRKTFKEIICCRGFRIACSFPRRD
Test: Competitive inhibition binding assay with 125I-NDP-MSH, MC5 receptor
Settings: 10 μM peptide, 0 assigned when raw inhibition between −10% and 10%, read-out: % Inhibition at 10 μM concentration at MC5-Receptor
Where a SMILES comes first, the peptide text is derived from it. [ ]: non-standard residue; d: D form. The star is where a group is joined. Arg(NO2) = N=C(NCCC[C@H](N)C(=O)O)N[N+](=O)[O-]; dPhe(4-Cl) = N[C@H](Cc1ccc(Cl)cc1)C(=O)O; d2Nal = N[C@H](Cc1ccc2ccccc2c1)C(=O)O; Cit = NC(=O)NCCC[C@H](N)C(=O)O; Ahp = NCCCCCCC(=O)O; Bn = c1ccc(C*)cc1

[
  {
    "compound": "C[C@@H](NC(=O)[C@H](COCc1ccccc1)NC(=O)CCCCCCN)C(=O)N[C@@H](CCCNC(=N)N)C(=O)O [NH2—(CH2)6—CO-Ser(Bzl)-D-Ala-Arg] (H-[Ahp]S(Bn)[dA]R-OH)",
    "tested_target": "hMC5-R (Homo sapiens, UniProt P33032)",
    "inhibition at 10 µM / %": 0
  },
  {
    "compound": "C[C@H](NC(=O)[C@@H](Cc1ccc(Cl)cc1)NC(=O)[C@H](COCc1ccccc1)NC(=O)CCCCCCN)C(=O)O [NH2—(CH2)6—CO-Ser(Bzl)-D-Phe(4-Cl)-Ala] (H-[Ahp]S(Bn)[dPhe(4-Cl)]A-OH)",
    "tested_target": "hMC5-R (Homo sapiens, UniProt P33032)",
    "inhibition at 10 µM / %": 0
  },
  {
    "compound": "N=C(N)NCCC[C@H](NC(=O)[C@@H](Cc1ccc(Cl)cc1)NC(=O)[C@H](COCc1ccccc1)NC(=O)CCCCCCN)C(=O)O [NH2—(CH2)6—CO-Ser(Bzl)-D-Phe(4-Cl)-Arg, NH2—(CH2)6CO-Ser(Bzl)-D-Phe(4-Cl)-Arg] (H-[Ahp]S(Bn)[dPhe(4-Cl)]R-OH)",
    "tested_target": "hMC5-R (Homo sapiens, UniProt P33032)",
    "inhibition at 10 µM / %": 0
  },
  {
    "compound": "NCCCCCCC(=O)N[C@@H](COCc1ccccc1)C(=O)N[C@H](Cc1ccc(Cl)cc1)C(=O)N[C@@H](CCCNC(N)=N[N+](=O)[O-])C(=O)O (H-[Ahp]S(Bn)[dPhe(4-Cl)][Arg(NO2)]-OH)",
    "tested_target": "hMC5-R (Homo sapiens, UniProt P33032)",
    "inhibition at 10 µM / %": 0
  },
  {
    "compound": "N=C(N)NCCC[C@H](NC(=O)[C@@H](Cc1ccc2ccccc2c1)NC(=O)[C@H](COCc1ccccc1)NC(=O)CCCCCCN)C(=O)O [NH2—(CH2)6—CO-Ser(Bzl)-D-Nal 2-Arg] (H-[Ahp]S(Bn)[d2Nal]R-OH)",
    "tested_target": "hMC5-R (Homo sapiens, UniProt P33032)",
    "inhibition at 10 µM / %": 0
  },
  {
    "compound": "N=C(N)NCCC[C@H](NC(=O)[C@@H](Cc1ccc(Cl)cc1)NC(=O)[C@@H](N)COCc1ccccc1)C(=O)O [Ser(Bzl)-D-Phe(4-Cl)-Arg] (H-Ser(Bn)-[dPhe(4-Cl)]-Arg-OH)",
    "tested_target": "hMC5-R (Homo sapiens, UniProt P33032)",
    "inhibition at 10 µM / %": 0
  },
  {
    "compound": "NCCCCCCC(=O)N[C@@H](COCc1ccccc1)C(=O)N[C@H](Cc1ccc(Cl)cc1)C(=O)N[C@@H](CCCNC(N)=O)C(=O)O [NH2—(CH2)6—CO-Ser(Bzl)-D-Phe(4-Cl)-Cit] (H-[Ahp]S(Bn)[dPhe(4-Cl)][Cit]-OH)",
    "tested_target": "hMC5-R (Homo sapiens, UniProt P33032)",
    "inhibition at 10 µM / %": 0
  },
  {
    "compound": "C[C@H](NC(=O)CCCCCCN)C(=O)N[C@H](Cc1ccc(Cl)cc1)C(=O)N[C@@H](CCCNC(=N)N)C(=O)O [NH2—(CH2)6—CO-Ala-D-Phe(4-Cl)-Arg] (H-[Ahp]A[dPhe(4-Cl)]R-OH)",
    "tested_target": "hMC5-R (Homo sapiens, UniProt P33032)",
    "inhibition at 10 µM / %": 0
  },
  {
    "compound": "CC(=O)N[C@@H](COCc1ccccc1)C(=O)N[C@H](Cc1ccc(Cl)cc1)C(=O)N[C@@H](CCCNC(=N)N)C(=O)O [Ac-Ser(Bzl)-D-Phe(4-Cl)-Arg] (Ac-Ser(Bn)-[dPhe(4-Cl)]-Arg-OH)",
    "tested_target": "hMC5-R (Homo sapiens, UniProt P33032)",
    "inhibition at 10 µM / %": 0
  }
]

====

Listed here are compounds together with their documented inhibition at 10 µM.
Biological target: hMC4-R (Homo sapiens)
Construct: expressed in transfected cells
Sequence (P32245 whole entry): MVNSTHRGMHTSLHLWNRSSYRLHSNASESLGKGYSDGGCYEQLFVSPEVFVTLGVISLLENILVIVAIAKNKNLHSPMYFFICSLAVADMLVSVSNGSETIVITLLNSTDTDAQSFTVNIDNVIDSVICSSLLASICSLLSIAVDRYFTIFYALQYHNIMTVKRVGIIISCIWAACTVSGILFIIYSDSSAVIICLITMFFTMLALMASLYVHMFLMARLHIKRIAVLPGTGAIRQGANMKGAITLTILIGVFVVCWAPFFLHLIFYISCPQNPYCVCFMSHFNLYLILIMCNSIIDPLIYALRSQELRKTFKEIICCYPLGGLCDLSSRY
Assay: Competitive inhibition binding assay with 125I-NDP-MSH, MC4 receptor
Details: 10 μM peptide, 0 assigned when raw inhibition between −10% and 10%, read-out: % Inhibition at 10 μM concentration at MC4-Receptor
Where a SMILES comes first, the peptide text is derived from it. [ ]: non-standard residue; d: D form. The star is where a group is joined. dPhe(4-Cl) = N[C@H](Cc1ccc(Cl)cc1)C(=O)O; Orn = NCCC[C@H](N)C(=O)O; Ahp = NCCCCCCC(=O)O; Bn = c1ccc(C*)cc1

[
  {
    "compound": "NCCCCCCC(=O)N[C@@H](COCc1ccccc1)C(=O)N[C@H](Cc1ccc(Cl)cc1)C(=O)N[C@@H](CCCN)C(=O)O [NH2—(CH2)6—CO-Ser(Bzl)-D-Phe(4-Cl)-Orn] (H-[Ahp]S(Bn)[dPhe(4-Cl)][Orn]-OH)",
    "tested_target": "hMC4-R (Homo sapiens)",
    "readout_units": "%",
    "inhibition at 10 µM": 0
  },
  {
    "compound": "N=C(N)NCCC[C@H](NC(=O)[C@@H](Cc1ccc(Cl)cc1)NC(=O)[C@@H](N)COCc1ccccc1)C(=O)O [Ser(Bzl)-D-Phe(4-Cl)-Arg] (H-Ser(Bn)-[dPhe(4-Cl)]-Arg-OH)",
    "tested_target": "hMC4-R (Homo sapiens)",
    "readout_units": "%",
    "inhibition at 10 µM": 0
  },
  {
    "compound": "C[C@@H](NC(=O)[C@H](COCc1ccccc1)NC(=O)CCCCCCN)C(=O)N[C@@H](CCCNC(=N)N)C(=O)O [NH2—(CH2)6—CO-Ser(Bzl)-D-Ala-Arg] (H-[Ahp]S(Bn)[dA]R-OH)",
    "tested_target": "hMC4-R (Homo sapiens)",
    "readout_units": "%",
    "inhibition at 10 µM": 0
  },
  {
    "compound": "CC(=O)N[C@@H](COCc1ccccc1)C(=O)N[C@H](Cc1ccc(Cl)cc1)C(=O)N[C@@H](CCCNC(=N)N)C(=O)O [Ac-Ser(Bzl)-D-Phe(4-Cl)-Arg] (Ac-Ser(Bn)-[dPhe(4-Cl)]-Arg-OH)",
    "tested_target": "hMC4-R (Homo sapiens)",
    "readout_units": "%",
    "inhibition at 10 µM": 0
  },
  {
    "compound": "C[C@H](NC(=O)[C@@H](Cc1ccc(Cl)cc1)NC(=O)[C@H](COCc1ccccc1)NC(=O)CCCCCCN)C(=O)O [NH2—(CH2)6—CO-Ser(Bzl)-D-Phe(4-Cl)-Ala] (H-[Ahp]S(Bn)[dPhe(4-Cl)]A-OH)",
    "tested_target": "hMC4-R (Homo sapiens)",
    "readout_units": "%",
    "inhibition at 10 µM": 0
  },
  {
    "compound": "N=C(N)NCCC[C@H](NC(=O)[C@@H](Cc1ccc(Cl)cc1)NC(=O)[C@H](COCc1ccccc1)NC(=O)CCCCCCN)C(=O)O [NH2—(CH2)6—CO-Ser(Bzl)-D-Phe(4-Cl)-Arg, NH2—(CH2)6CO-Ser(Bzl)-D-Phe(4-Cl)-Arg] (H-[Ahp]S(Bn)[dPhe(4-Cl)]R-OH)",
    "tested_target": "hMC4-R (Homo sapiens)",
    "readout_units": "%",
    "inhibition at 10 µM": 0
  }
]

====

Target: hMC4-R (Homo sapiens)
Construct: expressed in transfected cells
Assay: Competitive inhibition binding assay with 125I-NDP-MSH, MC4 receptor
Conditions: 10 μM peptide, 0 assigned when raw inhibition between −10% and 10%, read-out: % Inhibition at 10 μM concentration at MC4-Receptor
Where a SMILES comes first, the peptide text is derived from it. [ ]: non-standard residue; d: D form. The star is where a group is joined. dPhe(4-Cl) = N[C@H](Cc1ccc(Cl)cc1)C(=O)O; d2Nal = N[C@H](Cc1ccc2ccccc2c1)C(=O)O; Ahp = NCCCCCCC(=O)O; Bn = c1ccc(C*)cc1
Listed here are compounds together with their documented inhibition at 10 µM.
readout_kind: inhibition at 10 µM (%)

[
  {
    "compound": "N=C(N)NCCC[C@H](NC(=O)[C@@H](Cc1ccc2ccccc2c1)NC(=O)[C@H](COCc1ccccc1)NC(=O)CCCCCCN)C(N)=O [NH2—(CH2)6—CO-Ser(Bzl)-D-Nal 2-Arg-NH2] (H-[Ahp]S(Bn)[d2Nal]R-NH2)",
    "reported_measurement": 0
  },
  {
    "compound": "NCCCCCCC(=O)N[C@@H](COCc1ccccc1)C(=O)N[C@H](Cc1ccc(Cl)cc1)C(=O)N[C@@H](CCCCN)C(=O)O [NH2—(CH2)6—CO-Ser(Bzl)-D-Phe(4-Cl)-Lys] (H-[Ahp]S(Bn)[dPhe(4-Cl)]K-OH)",
    "reported_measurement": 0
  }
]
